# Measurement protocol: Cellular metabolism of tritium-labeled compounds (TLC)
# Assay type: cell-based, human
# Details: human, hl-60 cells; HL-60, 5 μM, by 24 h; read-out: fraction of compound taken up that was metabolized
Assay readout: metabolised at 24 h, 5 µM

Query (molecule): CCCCCCCCCCCCCC(=O)N[C@@H](C)[C@H](O)c1ccccc1 ; field requested: metabolised at 24 h, 5 µM > 70%
